target: mouse TAAR1 (Mus musculus, UniProt Q923Y8); construct: expressed in transfected cells; host or cells: HEK293 cells (ATCC # CRL-1573), stably transfected with pIRESneo2 expression plasmid; membrane preparation; test: Radioligand binding with [3H]-rac-2-(1,2,3,4-tetrahydro-1-naphthyl)-2-imidazoline on membranes of HEK293 cells stably expressing TAAR1; details: mouse TAAR1; competition with [3H]-rac-2-(1,2,3,4-tetrahydro-1-naphthyl)-2-imidazoline at 60 nM, 4° C., 30 min
Sequence (Q923Y8 whole entry): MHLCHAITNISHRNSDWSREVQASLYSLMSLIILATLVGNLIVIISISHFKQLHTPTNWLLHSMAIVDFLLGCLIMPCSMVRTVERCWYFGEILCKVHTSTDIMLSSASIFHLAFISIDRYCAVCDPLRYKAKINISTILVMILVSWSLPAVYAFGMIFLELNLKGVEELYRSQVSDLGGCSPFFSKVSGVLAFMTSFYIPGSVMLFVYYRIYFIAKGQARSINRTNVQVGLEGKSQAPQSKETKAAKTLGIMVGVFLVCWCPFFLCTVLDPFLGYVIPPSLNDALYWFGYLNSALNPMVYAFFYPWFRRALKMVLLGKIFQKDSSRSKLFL
For each of the molecules below, state its Ki.
One number for each entry, in µM.

Lab note: record Ki of c1ccc2c(c1)OCCC2c1cnc[nH]1 (racemic) [Example 69] tested on mouse TAAR1 (Mus musculus, UniProt Q923Y8).
0.025

I have 2 molecules here; please give me Ki for each one.
1. Fc1cc(Cl)cc2c1CCCC2C1=NCCN1 (racemic) [Example 3]
2. Fc1ccc2c(c1)OCCC2c1cnc[nH]1 (racemic) [Example 65]

0.054
0.004

###

target: mouse TAAR1 (Mus musculus, UniProt Q923Y8); construct: expressed in transfected cells; host or cells: HEK293 cells (ATCC # CRL-1573), stably transfected with pIRESneo2 expression plasmid; membrane preparation; test: Radioligand binding with [3H]-rac-2-(1,2,3,4-tetrahydro-1-naphthyl)-2-imidazoline on membranes of HEK293 cells stably expressing TAAR1; settings: mouse TAAR1; competition with [3H]-rac-2-(1,2,3,4-tetrahydro-1-naphthyl)-2-imidazoline at 60 nM, 4° C., 30 min
Measurement label: Ki

As a guide, the following entries are already answered.
Lab note: record Ki of c1ccc2c(c1)NCCC2c1ncc[nH]1 (racemic) tested on mouse TAAR1 (Mus musculus, UniProt Q923Y8).
0.061 µM

Lab note: record Ki of Cc1ccc2c(c1)OCCC2c1cnc[nH]1 (racemic) tested on mouse TAAR1 (Mus musculus, UniProt Q923Y8).
0.008 µM

Lab note: record Ki of c1ccc2c(c1)OCCC2C1=NCCN1 (racemic) tested on mouse TAAR1 (Mus musculus, UniProt Q923Y8).
0.017 µM

I have 3 molecules here; please give me Ki for each one.
1. Clc1cccc2c1CCCC2C1=NCCN1 (racemic)
2. Clc1ccc2c(c1)CCCC2C1=NCCN1 (racemic)
3. COc1ccc2c(c1)CCCC2C1=NCCN1 (racemic)

1. 0.013 µM
2. 0.058 µM
3. 0.009 µM

###

molecular target: mouse TAAR1 (Mus musculus)
Measurement label: pKd
One number for each entry, as −log10 of the molar value.

Name the recorded pKd of the compound listed here: c1ccc2c(c1)CCCC2C1=NCCN1 (racemic) [reference compound]
7.22

###

target: mouse TAAR1 (Mus musculus); construct: expressed in transfected cells; host or cells: HEK293 cells (ATCC # CRL-1573), stably transfected with pIRESneo2 expression plasmid; membrane preparation; assay: Radioligand binding with [3H]-rac-2-(1,2,3,4-tetrahydro-1-naphthyl)-2-imidazoline on membranes of HEK293 cells stably expressing TAAR1; settings: mouse TAAR1; competition with [3H]-rac-2-(1,2,3,4-tetrahydro-1-naphthyl)-2-imidazoline at 60 nM, 4° C., 30 min
Lab note: compare Ki with 0.03 µM, writing true (1) if less and false (0) if equal or more.

A record lists Brc1cccc2c1CCCC2C1=NCCN1 (racemic) [Example 1] . Is its Ki below 0.03 µM?
true (1)

A record lists COc1ccc2c(c1)C(C1=NCCN1)CCC2 (racemic) [Example 20] . Is its Ki below 0.03 µM?
false (0)

A record lists Cc1cc(C)c2c(c1)C(c1ncc[nH]1)CCC2 (racemic) [Example 10] . Is its Ki below 0.03 µM?
true (1)

###

For each of the compounds below, state its Ki.
molecular target: mouse TAAR1 (Mus musculus, UniProt Q923Y8); construct: expressed in transfected cells; host or cells: HEK293 cells (ATCC # CRL-1573), stably transfected with pIRESneo2 expression plasmid; membrane preparation; assay: Radioligand binding with [3H]-rac-2-(1,2,3,4-tetrahydro-1-naphthyl)-2-imidazoline on membranes of HEK293 cells stably expressing TAAR1; settings: mouse TAAR1; competition with [3H]-rac-2-(1,2,3,4-tetrahydro-1-naphthyl)-2-imidazoline at 60 nM, 4° C., 30 min
Answers are plain numbers, in µM.

Name the recorded Ki of the compound listed here: Clc1ccc2c(c1)C(c1cnc[nH]1)=CCO2
0.016

Name the recorded Ki of the compound listed here: Clc1cccc2c1OCC=C2c1cnc[nH]1
0.02

Name the recorded Ki of the compound listed here: COc1cccc2c1CCCC2C1=NCCN1 (racemic)
0.025

Name the recorded Ki of the compound listed here: Cc1cc(C)c2c(c1)C(C1=NCCN1)CCC2 (racemic)
0.011

Name the recorded Ki of the compound listed here: Cc1cccc2c1C(c1cnc[nH]1)CCO2 (racemic)
0.037

I have 2 compounds here; please give me Ki for each one.
1. C1=C(c2cnc[nH]2)c2ccccc2CC1
2. c1ccc2c(c1)OCCC2c1ncc[nH]1 (racemic)

0.011
0.054

I have 4 compounds here; please give me Ki for each one.
1. Fc1ccc2c(c1)C(c1cnc[nH]1)CCO2 (racemic)
2. c1ccc2c(c1)CCCC2c1c[nH]cn1 (racemic)
3. Clc1cc(Cl)c2c(c1)C(c1ncc[nH]1)CCO2 (racemic)
4. Fc1cccc2c1C(c1cnc[nH]1)CCO2 (racemic)

1. 0.004
2. 0.006
3. 0.053
4. 0.032
